The reported numbers originate from patent US8575114B2.

Biological target: hSGLT-1 (Homo sapiens (Human))
Sequence (P13866 whole entry): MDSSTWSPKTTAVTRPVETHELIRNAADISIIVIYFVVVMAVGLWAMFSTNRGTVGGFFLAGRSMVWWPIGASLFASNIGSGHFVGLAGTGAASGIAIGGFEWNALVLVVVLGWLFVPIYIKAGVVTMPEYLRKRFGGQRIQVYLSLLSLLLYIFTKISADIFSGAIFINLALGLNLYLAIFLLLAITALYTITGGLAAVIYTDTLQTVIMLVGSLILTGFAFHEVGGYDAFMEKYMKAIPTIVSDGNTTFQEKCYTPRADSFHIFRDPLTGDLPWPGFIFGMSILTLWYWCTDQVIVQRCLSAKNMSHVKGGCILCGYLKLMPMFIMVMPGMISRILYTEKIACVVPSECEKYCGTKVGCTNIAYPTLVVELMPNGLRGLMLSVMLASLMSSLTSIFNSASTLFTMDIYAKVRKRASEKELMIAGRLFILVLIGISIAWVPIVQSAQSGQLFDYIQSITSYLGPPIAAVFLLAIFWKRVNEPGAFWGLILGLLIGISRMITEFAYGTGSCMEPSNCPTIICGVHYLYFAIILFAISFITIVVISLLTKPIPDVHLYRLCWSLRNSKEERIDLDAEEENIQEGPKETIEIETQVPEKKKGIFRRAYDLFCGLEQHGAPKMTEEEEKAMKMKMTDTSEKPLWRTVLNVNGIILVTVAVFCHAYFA
Assay: [14C]AMG uptake inhibition in CHO-K1/hSGLT-1 cells
Settings: 4 μM [14C]AMG, 3-hr incubation at 37° C., read-out: SGLT-1, IC50
RECORDED ENDPOINT: IC50

INSERT INTO measurements (record_smiles, assay_result) VALUES
  ('O=c1n(Cc2cc([C@@H]3O[C@H](CO)[C@@H](O)[C@H](O)[C@H]3O)ccc2Cl)nc2ccc(C(F)(F)F)cn12', '> 90 µM'),
  ('Cc1cc2nn(Cc3cc([C@@H]4O[C@H](CO)[C@@H](O)[C@H](O)[C@H]4O)ccc3Cl)c(=O)n2cc1Cl', '> 90 µM'),
  ('O=c1n(Cc2cc([C@@H]3O[C@H](CO)[C@@H](O)[C@H](O)[C@H]3O)ccc2Cl)nc2ccc(CCO)cn12', '> 90 µM'),
  ('OC[C@H]1O[C@@H](c2ccc(Cl)c(Cc3ccc4ncnn4c3)c2)[C@H](O)[C@@H](O)[C@@H]1O', '> 90 µM'),
  ('OC[C@H]1O[C@@H](c2ccc(Cl)c(Cn3nc4ccccn4c3=S)c2)[C@H](O)[C@@H](O)[C@@H]1O', '> 73.2 µM');
